B1: LINE1-full (parent)
chain: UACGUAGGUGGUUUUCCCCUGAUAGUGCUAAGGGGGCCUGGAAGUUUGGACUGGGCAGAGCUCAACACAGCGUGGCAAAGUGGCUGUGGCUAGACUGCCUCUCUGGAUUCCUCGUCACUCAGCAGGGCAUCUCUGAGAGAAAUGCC

- Variants of: B1
- Assay Text: self-cleavage, relative activity (ratio to wild type); higher = more cleavage; in vitro, sequencing; the parent is a self-cleaving ribozyme
Kindly state self-cleavage for each of the entries shown.
Number, no unit, nothing else.

Report self-cleavage for U29C A31G please.
1.14

Report self-cleavage for A24G A59G please.
0.21

Report self-cleavage for U73C G114A please.
1.54

Report self-cleavage for A57U A69G please.
0.08

Report self-cleavage for U115C A121G please.
1.42

Report self-cleavage for A24G U29A please.
1.3

Report self-cleavage for U12C U47G please.
1.21

Report self-cleavage for U13C C99U please.
0.48

Report self-cleavage for U1C U96C please.
0.12

Report self-cleavage for U12C G36A please.
1.04

Report self-cleavage for U87C U108C please.
0.24

Report self-cleavage for U108C U134G please.
2.43

Report self-cleavage for C66U A138U please.
0.03

Report self-cleavage for U23A U102C please.
2.11

Report self-cleavage for G53A A69U please.
0.07

Report self-cleavage for G8A U119C please.
1.1

Report self-cleavage for G41U U132A please.
1.35

Report self-cleavage for U14C C110A please.
1.33

Report self-cleavage for U52A A59G please.
0.03

Report self-cleavage for G75A A94G please.
0.25

Report self-cleavage for A65U G114A please.
0.19

Report self-cleavage for U1A U14C please.
1.71
